- assay.protocol: AUClast in Sprague-Dawley rat at 1 mg/kg, iv or 5 mg/kg, po by LC-MS/MS method
- Assay type: ADME, organism-based
- condition.set: in vivo
measured.metric: AUC(0-t) (µM·h)
Answers are plain numbers, in µM·h.

CC(=O)N1CCc2c(c(N3CCCc4cc(-c5cnn(C)c5)c(C(F)F)cc43)nn2C2CCOCC2)C1	9.4

Consider the record given below.
Problem: What value of AUC(0-t) has been recorded for this entry: CNC(=O)N1CCc2c(c(N3CCCc4cc(-c5cnn(C)c5)c(C(F)F)cc43)nn2C2CCOCC2)C1
Result: 16

* * *

- assayed.target: Bromodomain-containing protein 4 (Homo sapiens)
- assay.protocol: Displacement of biotinylated histone H3K14 peptide ligand from human recombinant His-tagged BRD4 bromodomain-2 measured after 10 mins by TR-FRET assay
measured.metric: IC50

Problem: What value of IC50 has been recorded for this entry: CC(=O)N1CCc2c(c(N3CCCc4cc(-c5cnn(C)c5)c(C(F)F)cc43)nn2C2CCOCC2)C1
Result: > 20 µM
